Values compiled from paper PMC9420858.

Entries and their melting point values follow.

stdin: In one line, give reported melting point of the entry Brc1ccc(N2CCN(CCc3ccc(COc4ccc5c(c4)CCC5)cc3)CC2)cc1 [Compound 24] .
stdout: 114.1 to 115.2 °C

Continuing:
stdin: In one line, give reported melting point of the entry Cc1cccc(N2CCN(CCc3ccc(COc4ccc5c(c4)CCC5)cc3)CC2)c1 [Compound 9] .
stdout: 61.2 to 62.7 °C

stdin: In one line, give reported melting point of the entry COc1ccc(N2CCN(CCc3ccc(COc4ccc5c(c4)CCC5)cc3)CC2)cc1 [Compound 15] .
stdout: 78.1 to 79.3 °C

stdin: In one line, give reported melting point of the entry Clc1cccc(N2CCN(CCc3ccc(COc4ccc5c(c4)CCC5)cc3)CC2)c1 [Compound 20] .
stdout: 83.2 to 84.3 °C

stdin: In one line, give reported melting point of the entry FC(F)(F)c1ccc(N2CCN(CCc3ccc(COc4ccc5c(c4)CCC5)cc3)CC2)cc1 [Compound 26] .
stdout: 135.3 to 136.5 °C

stdin: In one line, give reported melting point of the entry c1ccc(N2CCN(CCc3ccc(COc4ccc5c(c4)CCC5)cc3)CC2)nc1 [Compound 7] .
stdout: 90.1 to 91.8 °C

----------
value.type: melting point

stdin: In one line, give reported melting point of the entry Clc1cccc(N2CCN(CCc3ccc(COc4ccc5c(c4)CCC5)cc3)CC2)c1Cl .
stdout: 77.2 to 78.4 °C

stdin: In one line, give reported melting point of the entry COc1ccccc1N1CCN(CCc2ccc(COc3ccc4c(c3)CCC4)cc2)CC1 .
stdout: 77.3 to 78.5 °C

stdin: In one line, give reported melting point of the entry COc1cccc(N2CCN(CCc3ccc(COc4ccc5c(c4)CCC5)cc3)CC2)c1 .
stdout: 74.2 to 75.4 °C

stdin: In one line, give reported melting point of the entry Cc1ccc(N2CCN(CCc3ccc(COc4ccc5c(c4)CCC5)cc3)CC2)cc1 .
stdout: 105.1 to 106.3 °C

Continuing:
stdin: In one line, give reported melting point of the entry Clc1ccc(N2CCN(CCc3ccc(COc4ccc5c(c4)CCC5)cc3)CC2)cc1 .
stdout: 117.2 to 118.6 °C
